Ref: ChEMBL document CHEMBL3856211

target: Cannabinoid receptor 1 (Mus musculus); test: Intrinsic activity at CB1 receptor in mouse N1E-115 cells assessed as phosphorylation of ERK1/2 at 1 uM after 10 mins by Western blot method relative to control; format: cell-based
# reported Intrinsic activity; entries follow
Enter your answer as a number in %; do not include the unit.

See these solved cases before continuing.
[
  {
    "CPD_SMILES": "O=C(CC1CCCCC1)c1nn(-c2ccc(Cl)cc2Cl)c2c1CCCc1cc(Cl)ccc1-2",
    "Intrinsic activity (%)": 115
  },
  {
    "CPD_SMILES": "O=C(NC[C@H]1CCCO1)c1nn(-c2ccc(Cl)cc2Cl)c2c1CCCc1cc(Cl)ccc1-2",
    "Intrinsic activity (%)": 113
  },
  {
    "CPD_SMILES": "Cc1c(C(=O)NN2CCCCC2)nn(-c2ccc(Cl)cc2Cl)c1-c1ccc(Cl)cc1",
    "Intrinsic activity (%)": 110
  },
  {
    "CPD_SMILES": "O=C(NC1CCCCC1)c1nn(-c2ccc(Cl)cc2Cl)c2c1CCCc1cc(Cl)ccc1-2",
    "Intrinsic activity (%)": 113
  },
  {
    "CPD_SMILES": "O=C(NN1CCCC1)c1nn(-c2ccc(Cl)cc2Cl)c2c1CCCc1cc(Cl)ccc1-2",
    "Intrinsic activity (%)": 95
  }
]

Please give the measured Intrinsic activity for this compound: O=C(NCC12CC3CC(CC(C3)C1)C2)c1nn(-c2ccc(Cl)cc2Cl)c2c1CCCc1cc(Cl)ccc1-2
98

Please give the measured Intrinsic activity for this compound: O=C(NN1CCCCCC1)c1nn(-c2ccc(Cl)cc2Cl)c2c1CCCc1cc(Cl)ccc1-2
107

Please give the measured Intrinsic activity for this compound: O=C(NCC1CCCCC1)c1nn(-c2ccc(Cl)cc2Cl)c2c1CCCc1cc(Cl)ccc1-2
100

Please give the measured Intrinsic activity for this compound: O=C(NN1CCCCC1)c1nn(-c2ccc(Cl)cc2Cl)c2c1CCCc1cc(Cl)ccc1-2
111

* * *

test: Selectivity ratio of Ki for human CB2 receptor to Ki for CB1 receptor in mouse whole brain membranes; assay type: cell membranes
EXPERIMENTAL_ENDPOINT: Ratio Ki
Lab note: jot the number down without any unit.

See these solved cases before continuing.
[
  {
    "COMPOUND": "O=C(NN1CCCCC1)c1nn(-c2ccc(Cl)cc2Cl)c2c1CCCc1cc(Cl)ccc1-2",
    "Ratio Ki": 13.3
  },
  {
    "COMPOUND": "O=C(NC1CCCCC1)c1nn(-c2ccc(Cl)cc2Cl)c2c1CCCc1cc(Cl)ccc1-2",
    "Ratio Ki": 1.75
  },
  {
    "COMPOUND": "OC(CC1CCCCC1)c1nn(-c2ccc(Cl)cc2Cl)c2c1CCCc1cc(Cl)ccc1-2 (stereo not drawn)",
    "Ratio Ki": 0.16
  }
]

Please give the measured Ratio Ki for this compound: O=C(NCC12CC3CC(CC(C3)C1)C2)c1nn(-c2ccc(Cl)cc2Cl)c2c1CCCc1cc(Cl)ccc1-2
0.69

Please give the measured Ratio Ki for this compound: O=C(NC[C@H]1CCCO1)c1nn(-c2ccc(Cl)cc2Cl)c2c1CCCc1cc(Cl)ccc1-2
2.1

* * *

target: Cannabinoid receptor 1 (Homo sapiens, UniProt P21554)
Sequence (P21554 whole entry): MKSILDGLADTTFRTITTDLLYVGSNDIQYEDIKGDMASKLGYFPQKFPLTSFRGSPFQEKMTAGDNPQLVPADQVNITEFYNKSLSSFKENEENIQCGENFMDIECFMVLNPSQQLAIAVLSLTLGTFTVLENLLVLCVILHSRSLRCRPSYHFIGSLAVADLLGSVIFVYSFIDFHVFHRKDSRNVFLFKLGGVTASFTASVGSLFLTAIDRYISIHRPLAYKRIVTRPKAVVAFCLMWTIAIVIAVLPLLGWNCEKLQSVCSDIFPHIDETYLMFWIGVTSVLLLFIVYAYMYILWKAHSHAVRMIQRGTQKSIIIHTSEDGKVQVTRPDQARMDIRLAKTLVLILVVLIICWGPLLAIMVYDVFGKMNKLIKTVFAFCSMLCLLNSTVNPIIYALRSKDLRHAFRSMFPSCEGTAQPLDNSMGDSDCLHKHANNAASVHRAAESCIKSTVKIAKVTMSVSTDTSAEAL
EXPERIMENTAL_ENDPOINT: Ki

State its Ki on Cannabinoid receptor 1 (Homo sapiens, UniProt P21554): O=C(NN1CCCCC1)c1nn(-c2ccc(Cl)cc2Cl)c2c1CCCc1cc(Cl)ccc1-2
126 nM

* * *

biological target: Cannabinoid receptor 1 (Mus musculus, UniProt P47746); assay: Displacement of [3H]-CP55,940 from CB1 receptor in mouse whole brain membranes after 60 mins by liquid scintillation spectrometry
Sequence (P47746 whole entry): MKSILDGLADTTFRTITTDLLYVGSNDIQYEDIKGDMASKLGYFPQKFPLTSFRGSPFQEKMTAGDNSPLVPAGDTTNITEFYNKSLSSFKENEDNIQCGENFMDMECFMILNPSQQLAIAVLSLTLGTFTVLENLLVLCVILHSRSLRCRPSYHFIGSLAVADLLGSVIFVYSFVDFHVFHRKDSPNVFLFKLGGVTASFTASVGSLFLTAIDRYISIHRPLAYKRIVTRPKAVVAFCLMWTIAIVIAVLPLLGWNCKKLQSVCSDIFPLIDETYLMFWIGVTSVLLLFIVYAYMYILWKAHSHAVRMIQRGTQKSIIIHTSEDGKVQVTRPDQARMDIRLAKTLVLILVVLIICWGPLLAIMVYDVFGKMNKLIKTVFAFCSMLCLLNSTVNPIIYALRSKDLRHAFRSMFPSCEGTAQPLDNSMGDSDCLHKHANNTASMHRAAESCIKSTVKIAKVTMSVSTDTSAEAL
pKi: −log10 of the molar value.
Label 1 for high-side pKi (at or above 8) and -1 for low-side pKi (below it).

[
  {
    "MOLECULE": "O=C(NC[C@H]1CCCO1)c1nn(-c2ccc(Cl)cc2Cl)c2c1CCCc1cc(Cl)ccc1-2",
    "CLASSIFICATION": -1
  },
  {
    "MOLECULE": "O=C(NCC1CCCCC1)c1nn(-c2ccc(Cl)cc2Cl)c2c1CCCc1cc(Cl)ccc1-2",
    "CLASSIFICATION": -1
  },
  {
    "MOLECULE": "O=C(NN1CCCCCC1)c1nn(-c2ccc(Cl)cc2Cl)c2c1CCCc1cc(Cl)ccc1-2",
    "CLASSIFICATION": 1
  },
  {
    "MOLECULE": "O=C(NN1CCCC1)c1nn(-c2ccc(Cl)cc2Cl)c2c1CCCc1cc(Cl)ccc1-2",
    "CLASSIFICATION": -1
  }
]

Textbook exercise: given the entry O=C(NCC12CC3CC(CC(C3)C1)C2)c1nn(-c2ccc(Cl)cc2Cl)c2c1CCCc1cc(Cl)ccc1-2 , state whether its pKi is greater than or equal to 8.
-1

Textbook exercise: given the entry CC1(C)C2CCC(CNC(=O)c3nn(-c4ccc(Cl)cc4Cl)c4c3CCCc3cc(Cl)ccc3-4)C1C2 (stereo not drawn) , state whether its pKi is greater than or equal to 8.
1

Textbook exercise: given the entry OC(CC1CCCCC1)c1nn(-c2ccc(Cl)cc2Cl)c2c1CCCc1cc(Cl)ccc1-2 (stereo not drawn) , state whether its pKi is greater than or equal to 8.
-1

Textbook exercise: given the entry Cc1ccc(Cn2nc(C(=O)NCC3CCC4CC3C4(C)C)c3c2-c2cc(Cl)ccc2CCC3)cc1 (stereo not drawn) , state whether its pKi is greater than or equal to 8.
-1

* * *

# reported pKi; entries follow
molecular target: UniProt P34972
Sequence (P34972 whole entry): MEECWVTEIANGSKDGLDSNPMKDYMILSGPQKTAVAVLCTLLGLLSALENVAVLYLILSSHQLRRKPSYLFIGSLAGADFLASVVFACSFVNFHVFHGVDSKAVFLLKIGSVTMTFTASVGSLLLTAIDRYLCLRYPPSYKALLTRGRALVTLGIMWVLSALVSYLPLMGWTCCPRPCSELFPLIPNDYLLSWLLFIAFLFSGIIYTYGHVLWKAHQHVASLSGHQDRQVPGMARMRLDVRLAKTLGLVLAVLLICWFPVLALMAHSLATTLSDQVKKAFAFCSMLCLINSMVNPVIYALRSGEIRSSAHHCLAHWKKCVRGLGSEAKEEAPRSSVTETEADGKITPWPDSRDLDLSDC
Give only the number. pKi is defined as minus log10 of concentration in molar units.

See these solved cases before continuing.
[
  {
    "MOLECULE": "Cc1ccc(Cn2nc(C(=O)NCC3CCC4CC3C4(C)C)c3c2-c2ccc(Cl)cc2CCC3)cc1 (stereo not given)",
    "pKi": 8.02
  },
  {
    "MOLECULE": "CC1(C)C2CCC(CNC(=O)c3nn(-c4ccc(Cl)cc4Cl)c4c3CCCc3cc(Cl)ccc3-4)C1C2 (stereo not given)",
    "pKi": 7.71
  },
  {
    "MOLECULE": "OC(CC1CCCCC1)c1nn(-c2ccc(Cl)cc2Cl)c2c1CCCc1cc(Cl)ccc1-2 (stereo not given)",
    "pKi": 7.62
  },
  {
    "MOLECULE": "O=C(CC1CCCCC1)c1nn(-c2ccc(Cl)cc2Cl)c2c1CCCc1cc(Cl)ccc1-2",
    "pKi": 6.49
  },
  {
    "MOLECULE": "Cc1ccc(Cn2nc(C(=O)NCC3CCC4CC3C4(C)C)c3c2-c2cc(Cl)ccc2CCC3)cc1 (stereo not given)",
    "pKi": 7.29
  },
  {
    "MOLECULE": "O=C(NCC1CCCCC1)c1nn(-c2ccc(Cl)cc2Cl)c2c1CCCc1cc(Cl)ccc1-2",
    "pKi": 7.50
  },
  {
    "MOLECULE": "CC1(C)C2CCC(CNC(=O)c3nn(-c4ccc(Cl)cc4Cl)c4c3CCCc3ccc(Cl)cc3-4)C1C2 (stereo not given)",
    "pKi": 7.87
  },
  {
    "MOLECULE": "O=C(NCC12CC3CC(CC(C3)C1)C2)c1nn(-c2ccc(Cl)cc2Cl)c2c1CCCc1cc(Cl)ccc1-2",
    "pKi": 7.88
  }
]

State its pKi on UniProt P34972: O=C(NC1CCCCC1)c1nn(-c2ccc(Cl)cc2Cl)c2c1CCCc1cc(Cl)ccc1-2
7.75

State its pKi on UniProt P34972: O=C(NC[C@H]1CCCO1)c1nn(-c2ccc(Cl)cc2Cl)c2c1CCCc1cc(Cl)ccc1-2
7.28

* * *

molecular target: UniProt:P47746; experiment: Antagonist activity at CB1 receptor in mouse N1E-115 cells assessed as inhibition of WIN55,212-2-induced phosphorylation of ERK1/2 by measuring phosphorylated ERK1/2 level at 1 uM preincubated for 5 mins followed by WIN55,212-2 addition measured after 10 mins by Western blot method; type: cell-based; set-up: scale not given: the % may be the effect or the level left
# reported Activity; entries follow
Enter your answer as a number in %; do not include the unit.

[
  {
    "CPD_SMILES": "O=C(NN1CCCCCC1)c1nn(-c2ccc(Cl)cc2Cl)c2c1CCCc1cc(Cl)ccc1-2",
    "Activity / %": 102
  }
]

Please give the measured Activity for this compound: O=C(CC1CCCCC1)c1nn(-c2ccc(Cl)cc2Cl)c2c1CCCc1cc(Cl)ccc1-2
105

Please give the measured Activity for this compound: O=C(NC1CCCCC1)c1nn(-c2ccc(Cl)cc2Cl)c2c1CCCc1cc(Cl)ccc1-2
117

Please give the measured Activity for this compound: Cc1c(C(=O)NN2CCCCC2)nn(-c2ccc(Cl)cc2Cl)c1-c1ccc(Cl)cc1
108

Please give the measured Activity for this compound: O=C(NC[C@H]1CCCO1)c1nn(-c2ccc(Cl)cc2Cl)c2c1CCCc1cc(Cl)ccc1-2
118

Please give the measured Activity for this compound: O=C(NN1CCCC1)c1nn(-c2ccc(Cl)cc2Cl)c2c1CCCc1cc(Cl)ccc1-2
103

Please give the measured Activity for this compound: O=C(NCC1CCCCC1)c1nn(-c2ccc(Cl)cc2Cl)c2c1CCCc1cc(Cl)ccc1-2
109

Please give the measured Activity for this compound: O=C(NCC12CC3CC(CC(C3)C1)C2)c1nn(-c2ccc(Cl)cc2Cl)c2c1CCCc1cc(Cl)ccc1-2
108

Please give the measured Activity for this compound: O=C(NN1CCCCC1)c1nn(-c2ccc(Cl)cc2Cl)c2c1CCCc1cc(Cl)ccc1-2
115
